Entries and their inhibition in vivo at 3 mg/kg
# System: Rattus norvegicus
# EXPERIMENTAL_DETAILS: Inhibition of carrageenan-induced rat foot oedema following 3 mg/kg administration.
# Format: functional
EXPERIMENTAL_ENDPOINT: inhibition in vivo at 3 mg/kg (%)

> print(dat)
                                    molecule       assay.system  quantity.unit  reported.result
 1  CC(=O)c1cccc(C2=C(c3ccc(S(C)(=O)=O)cc3)OC(C)(C)C2=O)c1  Rattus norvegicus              %               22
 2  CC1(C)OC(c2ccc(S(N)(=O)=O)cc2)=C(c2cccc(F)c2)C1=O  Rattus norvegicus              %               47
 3  COc1ccc2c(c1)c(CC(=O)O)c(C)n2C(=O)c1ccc(Cl)cc1  Rattus norvegicus              %               45
 4  Cn1cc(C2=C(c3ccc(S(C)(=O)=O)cc3)OC(C)(C)C2=O)cn1  Rattus norvegicus              %               36
 5  CC1(C)OC(c2ccc(S(C)(=O)=O)c(F)c2)=C(c2cccc(Cl)c2)C1=O  Rattus norvegicus              %               28
 6  CC1(C)OC(c2ccc(S(N)(=O)=O)c(F)c2)=C(c2cc(F)cc(F)c2)C1=O  Rattus norvegicus              %               31
 7  Cn1cc(C2=C(c3ccc(S(N)(=O)=O)cc3)OC(C)(C)C2=O)cn1  Rattus norvegicus              %               29
 8  CC1(C)OC(c2ccc(S(C)(=O)=O)cc2)=C(c2ccc(F)c(Cl)c2)C1=O  Rattus norvegicus              %               31
 9  CC(=O)c1ccc(C2=C(c3ccc(S(N)(=O)=O)cc3)OC(C)(C)C2=O)cc1  Rattus norvegicus              %               26
10  CC1(C)OC(c2ccc(S(N)(=O)=O)c(F)c2)=C(c2cccc(F)c2)C1=O  Rattus norvegicus              %               27
11  CCCCc1ccc(C2=C(c3ccc(S(C)(=O)=O)cc3)OC(C)(C)C2=O)cc1  Rattus norvegicus              %                8
12  CC1(C)OC(c2ccc(S(N)(=O)=O)cc2F)=C(c2cc(F)cc(F)c2)C1=O  Rattus norvegicus              %               32
13  CC1(C)OC(c2ccc(S(C)(=O)=O)cc2)=C(c2cccc(Cl)c2)C1=O  Rattus norvegicus              %               16
14  CCC1(C)OC(c2ccc(S(C)(=O)=O)cc2)=C(c2cccc(Cl)c2)C1=O (stereo not given)  Rattus norvegicus              %               23
15  Cc1cccc(C2=C(c3ccc(S(C)(=O)=O)cc3)OC3(CCCC3)C2=O)c1  Rattus norvegicus              %               26
16  CC1(C)OC(c2ccc(S(C)(=O)=O)cc2)=C(c2cc(F)cc(F)c2)C1=O  Rattus norvegicus              %               34
17  CC1(C)OC(c2ccc(S(N)(=O)=O)cc2)=C(c2cccc(Cl)c2)C1=O  Rattus norvegicus              %               39
18  Cc1ccc(-c2cc(C(F)(F)F)nn2-c2ccc(S(N)(=O)=O)cc2)cc1  Rattus norvegicus              %               34
19  CC1(C)OC(c2ccc(S(C)(=O)=O)cc2)=C(c2cccc(C(F)(F)F)c2)C1=O  Rattus norvegicus              %               31
20  CC1(C)OC(c2ccc(S(C)(=O)=O)cc2)=C(c2cccc(F)c2)C1=O  Rattus norvegicus              %               36
